B1: TFE3 (parent)
chain: FHLGLEDILMEEEEGVVGGLSGGA

- Variants of: B1
- Assay Remarks: protein stability index of a GFP-peptide fusion (GPS, HEK-293T) (PSI 1-6); higher = more stable;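 note: lentivirally expressed fusions sorted by FACS into six bins by GFP to DsRed ratio, PSI derived from sequencing read proportions per bin multiplied by bin number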
- Study Conditions: c terminus: a fixed tail appended

[
  {
    "Variant Label": "G22K",
    "protein stability index": 4.05
  },
  {
    "Variant Label": "I8C",
    "protein stability index": 4.03
  },
  {
    "Variant Label": "L20C",
    "protein stability index": 3.91
  },
  {
    "Variant Label": "I8Y",
    "protein stability index": 3.99
  },
  {
    "Variant Label": "L20R",
    "protein stability index": 3.99
  },
  {
    "Variant Label": "S21D",
    "protein stability index": 3.95
  },
  {
    "Variant Label": "M10A",
    "protein stability index": 4
  },
  {
    "Variant Label": "M10K",
    "protein stability index": 3.94
  },
  {
    "Variant Label": "H2E",
    "protein stability index": 3.95
  },
  {
    "Variant Label": "L20I",
    "protein stability index": 4.08
  },
  {
    "Variant Label": "G23D",
    "protein stability index": 4.04
  },
  {
    "Variant Label": "G23V",
    "protein stability index": 3.98
  },
  {
    "Variant Label": "G23P",
    "protein stability index": 4
  },
  {
    "Variant Label": "G4D",
    "protein stability index": 3.99
  }
]
